Tested on: TNFα
method-notes: cells
Type: cell-based, human
condition-set: Homo sapiens, Monocyte, LPS-stimulated human monocytes, TNFα content; read-out: EC50 TNF
Please assign 0 (no) whenever EC50 is at or above 100 nM, and 1 (yes) whenever it is below.

{"molecule": "CC(C)(O)c1coc(CNC(=O)c2cnc(-c3ccc4cc(C#N)cnn34)cc2NC23CCC(O)(CC2)CC3)n1 [Example 622]", "measured-on": "TNFα", "group-label": "0 (no)"}
{"molecule": "CN(C)C(=O)CNC(=O)c1cnc(-c2ccc3cc(C#N)cnn23)cc1NC12CCC(O)(CC1)CC2 [Example 333]", "measured-on": "TNFα", "group-label": "1 (yes)"}
{"molecule": "CC(C)(O)[C@H](F)CNC(=O)c1cnc(-c2ccc3cc(C#N)cnn23)cc1Nc1ccc(CO)cn1 [Example 670]", "measured-on": "TNFα", "group-label": "0 (no)"}
{"molecule": "CC(C)Nc1cc(-c2ccc3cc(C#N)cnn23)ncc1C(=O)N[C@@H]1CCOC1 [Example 37]", "measured-on": "TNFα", "group-label": "0 (no)"}
{"molecule": "CNC(=O)c1cnc(-c2ccc3cc(C#N)cnn23)cc1N[C@H]1CC[C@@H](C(=O)NC)C1 [Example 465]", "measured-on": "TNFα", "group-label": "0 (no)"}
